Assay: Water solubility, coulometric Karl Fischer titration ASTM-D6304
Type: physicochemical
Procedure: According to some preferred embodiments, the organic solvent is not soluble (or essentially not soluble) in water, and preferably has a water solubility equal to or lower than 200 mg/kg, preferably equal to or lower than 190 mg/kg, and more preferably equal to or lower than […]. Water solubility can be determined by coulometric Karl Fischer titration according to ASTM-D6304. Water solubility can be determined by coulometric Karl Fischer titration according to ASTM-D6304.
property.label: Water solubility (mg/kg)

Previously resolved entries follow.
[[record]]
compound = "CCCOc1ccccc1 [Solvent C, phenylpropylether]"
recorded_measurement = 141

[[record]]
compound = "CCc1ccc(OC)cc1 [Solvent A, 1-ethyl-4-methoxybenzene]"
recorded_measurement = 90


(a) COc1ccccc1 [Anisole (*), Anisole, reference compound]
(b) COc1c(C)cccc1C [Solvent B, 2,6-dimethylanisole]
Q. Of a and b , whose reported Water solubility is the larger number? Your choice should be expressed through its label.
A. a

// provenance: patent US20240253988A1
